READOUT: melting point

As a guide, the following entries are already answered.
> print(dat)
                                   compound        readout        obs.value
1  COc1ccc(CC2SC(=O)NC2=O)cc1C(=O)CCc1ccc(C(F)(F)F)cc1 (stereo not shown)  melting point  103 to 104.5 °C
2  COc1ccc(CC2SC(=O)NC2=O)cc1NC(=O)Cc1ccc(C(F)(F)F)cc1 (stereo not shown)  melting point    147 to 149 °C
3  COc1ccc(CC2SC(=O)NC2=O)cc1CC(=O)Nc1ccc(Oc2ccccc2)cc1 (stereo not shown)  melting point      82 to 84 °C

From here, focus on the item given below.
Req: Return melting point for the following compound: COc1ccc(CC2SC(=O)NC2=O)cc1NC(=O)Nc1ccc(C(F)(F)F)cc1 (stereo not shown)
Resp: 202 to 204 °C

----------
target: ligand-binding domain of human type PPARα (Homo sapiens, UniProt Q07869); assay: Test of transactivation on peroxisome proliferator-activated receptor (CHO cells, reporter plasmid), PPARα; details: read-out: Transactivation action PPARα EC50; CHO cells cotransfected with receptor and reporter plasmids; 24 hours; CAT activity, β-galactosidase internal standard
READOUT: EC50 (nM)
Provide only the numeric value, understood in nM.

> print(dat)
                                   compound                       experimental.system  readout  value.units  obs.value
1  COc1ccc(CC2SC(=O)NC2=O)cc1CC(=O)Nc1ccc(C(F)(F)F)cc1 (centres unmarked)  ligand-binding domain of human type PPARα (Homo sapiens, UniProt Q07869)     EC50           nM        600

Req: Recall the reported EC50 of CCCCC/C=C\C/C=C\C=C\[C@@H](O)C/C=C\CCCC(=O)O [(8S)-HETE, reference compound] when tested on ligand-binding domain of human type PPARα (Homo sapiens, UniProt Q07869).
Resp: 1300

----------
Biological target: ligand-binding domain of human type PPARα (Homo sapiens)
Sequence (Q07869 239-466 limits assumed): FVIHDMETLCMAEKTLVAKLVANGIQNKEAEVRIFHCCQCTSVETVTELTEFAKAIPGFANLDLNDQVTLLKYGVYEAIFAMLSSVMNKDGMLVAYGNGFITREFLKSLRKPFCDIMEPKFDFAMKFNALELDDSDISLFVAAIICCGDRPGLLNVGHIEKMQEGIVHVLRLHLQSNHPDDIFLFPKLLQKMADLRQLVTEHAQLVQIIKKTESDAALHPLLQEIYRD
Experiment: Test of transactivation on peroxisome proliferator-activated receptor (CHO cells, reporter plasmid), PPARα
READOUT: EC50 (nM)

> print(dat)
                                   compound                       experimental.system  readout  obs.value
1  COc1ccc(CC2SC(=O)NC2=O)cc1C(=O)CCc1ccc(C(F)(F)F)cc1 (stereo not drawn) [Example 22]  ligand-binding domain of human type PPARα (Homo sapiens)     EC50        800

a = COc1ccc(CC2SC(=O)NC2=O)cc1NC(=O)Nc1ccc(C(F)(F)F)cc1 (stereo not drawn) [Example 11]
b = COc1ccc(CC2SC(=O)NC2=O)cc1NC(=O)Cc1ccc(C(F)(F)F)cc1 (stereo not drawn) [Example 15]
Req: Among a and b , which shows a numerically higher EC50 result? # reply format: chosen label
Resp: b

----------
biological target: ligand-binding domain of human type PPARγ (Homo sapiens, UniProt P37231); assay: Test of transactivation on peroxisome proliferator-activated receptor (CHO cells, reporter plasmid), PPARγ; details: read-out: Transactivation action PPARγ EC50; CHO cells cotransfected with receptor and reporter plasmids; 24 hours; CAT activity, β-galactosidase internal standard
Sequence (P37231 238-503 limits assumed): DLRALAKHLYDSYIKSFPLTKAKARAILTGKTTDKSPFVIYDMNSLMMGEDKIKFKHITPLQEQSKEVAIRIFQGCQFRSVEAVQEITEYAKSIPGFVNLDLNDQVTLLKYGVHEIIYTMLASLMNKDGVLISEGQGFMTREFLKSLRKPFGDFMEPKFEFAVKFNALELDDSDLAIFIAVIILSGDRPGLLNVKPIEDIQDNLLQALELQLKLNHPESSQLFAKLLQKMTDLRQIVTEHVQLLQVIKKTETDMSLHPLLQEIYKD
READOUT: EC50 (µM)
Provide only the numeric value, understood in µM.

Req: Return EC50 for the following compound: COc1ccc(CC2SC(=O)NC2=O)cc1CC(=O)Nc1ccc(C(F)(F)F)cc1 (stereo not shown)
Resp: 3.3
